experiment: Inhibition of Pgp-mediated multidrug resistance in doxorubicin-resistant human K562 cells assessed as drug level required for 50% increase in nuclear concentration of pirarubicin by fluorescence assay; assay type: cell-based; settings: read-out: I50
metric: pIC50
Would you please state pIC50, meaning minus log10 of the concentration in mol/L, as a bare number?

INPUT: For COc1cc(CCC(=O)O[C@H]2CC[C@@H](N(C)[C@H]3CC[C@H](OC(=O)c4cc(OC)c(OC)c(OC)c4)CC3)CC2)cc(OC)c1OC (mixture of isomers) , write its pIC50.
OUTPUT: 6.46

INPUT: For `COc1cc(CCC(=O)O[C@H]2CC[C@@H](N(C)[C@H]3CC[C@@H](OC(=O)c4cc(OC)c(OC)c(OC)c4)CC3)CC2)cc(OC)c1OC` , write its pIC50.
OUTPUT: 5.96

INPUT: For COc1cc(CCC(=O)O[C@H]2CC[C@H](N(C)[C@H]3CC[C@@H](OC(=O)c4cc(OC)c(OC)c(OC)c4)CC3)CC2)cc(OC)c1OC (mixture of isomers) , write its pIC50.
OUTPUT: 6.20

====

assay: Inhibition of Pgp-mediated multidrug resistance in doxorubicin-resistant human K562 cells assessed as drug level required for 50% increase in nuclear concentration of pirarubicin by fluorescence assay; type: cell-based; conditions: read-out: I50
metric: IC50 (nM)
API: value field is a number in nM; no unit string.

INPUT: For COc1cc(C#CC(=O)O[C@H]2CC[C@@H](N(C)[C@H]3CC[C@H](OC(=O)c4cc(OC)c(OC)c(OC)c4)CC3)CC2)cc(OC)c1OC (mixture of isomers) , write its IC50.
OUTPUT: 20

INPUT: For COc1cc(/C=C/C(=O)O[C@H]2CC[C@H](N(C)[C@H]3CC[C@@H](OC(=O)c4cc(OC)c(OC)c(OC)c4)CC3)CC2)cc(OC)c1OC (mixture of isomers) , write its IC50.
OUTPUT: 92

INPUT: For COc1cc(C#CC(=O)O[C@H]2CC[C@H](N(C)[C@H]3CC[C@@H](OC(=O)c4cc(OC)c(OC)c(OC)c4)CC3)CC2)cc(OC)c1OC (mixture of isomers) , write its IC50.
OUTPUT: 80
